Examples of binders with documented pKD follow.
biological target: Fc-fusion protein of human carbonic anhydrase IX (human, UniProt Q16790 38-414); assay: SPR, captured hCAIX-Fc; pKD category A: >8.0
Starred links: 1 amine or outer side, 2 acyl side, 3 side chain; linkers in the order of their positions; H or OH if unused. Positions of bridges follow the written chain, without caps; N, C: chain ends. Non-standard residues stand in square brackets, D forms with d. *: point of attachment. Aph(SaPr) = 4-amino-L-phenylalanine, ring amine acylated by 3-sulfamoylpropanoic acid, NS(=O)(=O)CCC(=O)Nc1ccc(C[C@H](N[*:1])C(=O)[*:2])cc1; Phe(3-NHCO(CH2)3SO2NH2) = N[C@@H](Cc1cccc(NC(=O)CCCS(N)(=O)=O)c1)C(=O)O; DOTA = O=C(O)CN1CCN(CC(=O)O)CCN(CC(=O)*)CCN(CC(=O)O)CC1; mXylylene = c1cc(C[*:1])cc(C[*:2])c1; Dap = NC[C@H](N)C(=O)O

For the binder shown here, {DOTA}-ECE[dP]D[Aph(SaPr)]LTW[Dap]C-NH2 (lactam 1-10; linker 2-11 via mXylylene; SMILES CC(C)C[C@@H]1NC(=O)[C@H](Cc2ccc(NC(=O)CCS(N)(=O)=O)cc2)NC(=O)[C@H](CC(=O)O)NC(=O)[C@H]2CCCN2C(=O)[C@H](CCC(=O)O)NC(=O)[C@@H]2CSCc3cccc(c3)CSC[C@@H](C(N)=O)NC(=O)[C@H](CNC(=O)CC[C@H](NC(=O)CN3CCN(CC(=O)O)CCN(CC(=O)O)CCN(CC(=O)O)CC3)C(=O)N2)NC(=O)[C@H](Cc2c[nH]c3ccccc23)NC(=O)[C@H]([C@@H](C)O)NC1=O) [3BP-4505] , give the reported pKD.
> 8 pkd

For the binder shown here, {DOTA}-DCE[dP]D[Phe(3-NHCO(CH2)3SO2NH2)]LTW[Dap]C-NH2 (lactam 1-10; linker 2-11 via mXylylene; SMILES CC(C)C[C@@H]1NC(=O)[C@H](Cc2cccc(NC(=O)CCCS(N)(=O)=O)c2)NC(=O)[C@H](CC(=O)O)NC(=O)[C@H]2CCCN2C(=O)[C@H](CCC(=O)O)NC(=O)[C@@H]2CSCc3cccc(c3)CSC[C@@H](C(N)=O)NC(=O)[C@H](CNC(=O)C[C@H](NC(=O)CN3CCN(CC(=O)O)CCN(CC(=O)O)CCN(CC(=O)O)CC3)C(=O)N2)NC(=O)[C@H](Cc2c[nH]c3ccccc23)NC(=O)[C@H]([C@@H](C)O)NC1=O) [3BP-4488] , give the reported pKD.
> 8 pkd
